- TEST_SYSTEM: Avi-KRAS G12R (1-169) GppNHp/RAF1 RBD-3xFLAG (52-151) (Homo sapiens, UniProt P01116, G12R)
- Construct: Avi-KRAS G12R (1-169)
- Sequence (P01116 1-169 isoform P01116-2 G12R): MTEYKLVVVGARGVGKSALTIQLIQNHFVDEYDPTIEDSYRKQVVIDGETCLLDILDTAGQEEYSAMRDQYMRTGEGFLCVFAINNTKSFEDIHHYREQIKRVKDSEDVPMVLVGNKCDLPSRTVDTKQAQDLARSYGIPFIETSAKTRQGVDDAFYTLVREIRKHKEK
- ASSAY_TEXT: Raf1-KRAS G12R-GppNHP disruption HTRF assay (Biological Example 1)
- Assay type: binding
- CONDITION_CONTEXT: KRAS G12R-GppNHp/RAF1 RBD HTRF
pIC50: −log10 of the molar value.
Documented pIC50 across a set of compounds

Look over these answered cases.
CC(=O)N1C[C@@H]2OCCN(c3nc(OC[C@@]45CCCN4C[C@H](F)C5)nc4c(F)c(-c5ccc(F)c6sc(N)c(C#N)c56)c(C(F)(F)F)cc34)[C@@H]2C1 | 6.00 to 7.00
CCC(=O)N1CC[C@@H](N(C)c2nc(OC[C@]34CCCN3C[C@H](F)C4)nc3c(F)c(-c4ccc(F)c5sc(N)c(C#N)c45)c(C(F)(F)F)cc23)[C@H]1C (atropisomer, axis not shown) | < 5.00
CCN(c1nc(OC[C@@]23CCCN2C[C@H](F)C3)nc2c(F)c(-c3ccc(F)c4sc(N)c(C#N)c34)c(C(F)(F)F)cc12)[C@H]1C[C@H](C)N(C(=O)C2CC2)C1 | > 7.00
CCN(c1nc(OC[C@@]23CCCN2C[C@H](F)C3)nc2c(F)c(-c3ccc(F)c4sc(N)c(C#N)c34)c(Cl)cc12)[C@@H]1CCN(C(=O)C2CC2)[C@@H]1C | 6.00 to 7.00

Now, please, on to the next compound.
compound "CN(C)C(=O)c1cn2c(n1)CN(c1nc(OC[C@@]34CCCN3C[C@H](F)C4)nc3c(F)c(-c4ccc(F)c5sc(N)c(C#N)c45)c(C(F)(F)F)cc13)CC2" , pIC50 observed: 6.00 to 7.00

----------
- Tested on: H358 cells (KRAS G12C)
- ASSAY_TEXT: 3D Cell viability assay in H358 cells (Biological Example 6)
- Type: cell-based
- CONDITION_CONTEXT: Homo sapiens, NCI-H358; H358 (KRAS G12C) spheroids, 72 hours
Documented IC50 across a set of molecules

CCN(c1nc(OC[C@@]23CCCN2C[C@H](F)C3)nc2c(F)c(-c3ccc(F)c4sc(N)c(C#N)c34)c(C(F)(F)F)cc12)[C@H]1CC(=O)N2CCC[C@@H]12 (atropisomer, axis not shown; (aS)) | ≤ 100 nM

Now, please, on to the next molecule.
molecule CCN(c1nc(OC[C@@]23CCCN2C[C@H](F)C3)nc2c(F)c(-c3ccc(F)c4sc(N)c(C#N)c34)c(C(F)(F)F)cc12)[C@H]1CCN(C(=O)C2CC2)[C@@H]1C (atropisomer, axis not shown) , IC50 observed: ≤ 100 nM

----------
- TEST_SYSTEM: Avi-KRAS WT (2-169) GTP/RAF1 RBD-3xFLAG (51-131) (Homo sapiens, UniProt P01116)
- Construct: Avi-KRAS WT (2-169)
- Sequence (P01116 2-169 isoform P01116-2): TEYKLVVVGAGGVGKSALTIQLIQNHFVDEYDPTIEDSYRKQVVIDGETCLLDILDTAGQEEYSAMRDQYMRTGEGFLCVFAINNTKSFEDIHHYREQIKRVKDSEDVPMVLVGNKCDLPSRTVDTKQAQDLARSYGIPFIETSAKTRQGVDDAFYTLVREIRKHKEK
- ASSAY_TEXT: Raf1-KRAS WT-GTP disruption HTRF assay (Biological Example 3)
- Type: binding
- CONDITION_CONTEXT: KRAS WT, GTP-loaded
MEASURED_METRIC: IC50

Cc1c(C(=O)N(C)C)nn2c1CN(c1nc(OC[C@@]34CCCN3C[C@H](F)C4)nc3c(F)c(-c4ccc(F)c5sc(N)c(C#N)c45)c(C(F)(F)F)cc13)CC2 [Compound 501] | 100 to 1000 nM
CCN(c1nc(OC[C@@]23CCCN2C[C@H](F)C3)nc2c(F)c(-c3ccc(F)c4sc(N)c(C#N)c34)c(C(F)(F)F)cc12)[C@H]1C[C@@H]2COC(=O)N2C1 (atropisomer, axis not shown) | 100 to 1000 nM
CN(c1nc(OCC23CCCN2CC(F)C3)nc2c(F)c(-c3ccc(F)c4sc(N)c(C#N)c34)c(C(F)(F)F)cc12)C1CCc2ccncc21 (centres unmarked) [Compound 962] | 1000 to 10000 nM
CCN(c1nc(OC[C@@]23CCCN2C[C@H](F)C3)nc2c(F)c(-c3ccc(F)c4sc(N)c(C#N)c34)c(C(F)(F)F)cc12)[C@H]1C[C@H](C)N(C(=O)C2CC(OC)C2)C1 (some centres unmarked) | 100 to 1000 nM

Now, please, on to the next compound.
compound CCN(c1nc(OC[C@@]23CCCN2C[C@H](F)C3)nc2c(F)c(-c3ccc(F)c4sc(N)c(C#N)c34)c(C(F)(F)F)cc12)[C@H]1CCN(C(=O)C2COC2)[C@@H]1C (atropisomer, axis not shown) , IC50 observed: 100 to 1000 nM
